Test: Toxicity liver stage against HepG2, at 10uM
Format: cell-based
Design: test concentration 10 uM, cell line HepG2-A16-CD81EGFP
Details: human, HepG2-A16-CD81EGFP cells; read-out: INHIBITION
MEASUREMENT_NAME: cytotoxicity at 10 µM
Remember to put the unit after the number in your answer.

Below, each entry is followed by its recorded cytotoxicity at 10 µM result.
O=S(=O)(Cc1ccccc1Cl)N1CCC2(CC1)OCCS2
0.649%
CCC[C@H]1CN(Cc2cc(C#N)n(C)c2C)C[C@@H]1NS(=O)(=O)CC
-153%
CN1CCOC(CNCc2nc(-c3ccoc3)no2)C1 (stereo not given)
-5.27%

Ask: Please report cytotoxicity at 10 µM for the following molecule: COc1ccc(/C=C/CN2CCC3(CC2)CN(C)C(=O)O3)cc1
Result: -2.11%

Ask: Specify cytotoxicity at 10 µM for CC(C(=O)N1CCOCC1)n1cncn1 (stereo not given) and stop.
Result: -1.45%

Ask: Answer with the recorded cytotoxicity at 10 µM of Cn1ncc2c1C(COCC1CC1)N(C(=O)c1ccncn1)CC2 (stereo not given) only.
Result: -132%

Ask: Specify measured cytotoxicity at 10 µM for CCN1CC(CN(C)Cc2nc(-c3ccc(C)o3)oc2C)CC1=O (stereo not given) .
Result: 5.88%

Ask: Supply reported cytotoxicity at 10 µM belonging to this molecule: Cc1nnc(SCC(=O)Nc2csc3nc(=O)c(C)nn23)s1
Result: 10.8%

Ask: Check the records and state cytotoxicity at 10 µM for COc1cccc(OCC(=O)N2CCC3(CC2)[C@H](O)C[C@@H]3OC)c1
Result: 0.866%

Ask: Retrieve cytotoxicity at 10 µM measured for CN(C)C(=O)CNC(=O)c1cc2c(s1)CCN2S(C)(=O)=O and print it.
Result: 0.793%

Ask: Write down cytotoxicity at 10 µM measured for item Cc1cc(C[S+]([O-])Cc2ccccc2F)no1 (stereo not given)
Result: -3.71%

Ask: Annotate the molecule O=C1OC2(CCNCC2)CN1CC(=O)N1CCC1c1cccs1 (stereo not given) with its measured cytotoxicity at 10 µM.
Result: 4.35%

Ask: Query cytotoxicity at 10 µM for N#Cc1cccc(OCCN2CCC(C(=O)N3CCOCC3)CC2)c1
Result: -42.3%

Ask: Give reported cytotoxicity at 10 µM value for CC(C)(C)n1ncc2c(=O)[nH]c(NC3CC=CC3)nc21
Result: 1.68%

Ask: Look up cytotoxicity at 10 µM of O=C(c1cscn1)N1CC[C@@H]2[C@@H]1CCN2C1CCOCC1 and report it.
Result: 2.11%

Ask: Give recorded cytotoxicity at 10 µM. CSc1ncccc1C(=O)N1C[C@@H]2CC[C@H]1CN(c1cnccn1)C2
Result: -2.72%

Ask: For the molecule CC(C)CN1C(=O)CO[C@@H]2CN(C(=O)N(C)C)C[C@H]21 , give its reported cytotoxicity at 10 µM.
Result: 0.657%

Ask: Provide cytotoxicity at 10 µM value for the following molecule: CCc1c(C)nc(C)nc1N1CCC(NCCSc2nnnn2C)CC1
Result: -15.9%

Ask: Query cytotoxicity at 10 µM for Oc1cc(C2CCNCC2)nc(-c2ccsc2)n1
Result: 4.06%

Ask: Give the measured cytotoxicity at 10 µM for Cc1nc(NCC2CCOCC2)cc(C2CCN2S(C)(=O)=O)n1 (stereo not given)
Result: 2.58%

----------
Recorded cytotoxicity at 10 µM, one value per entry.
Experiment: Toxicity liver stage against HepG2, at 10uM
Assay type: cell-based
Design: test concentration 10 uM, cell line HepG2-A16-CD81EGFP
Settings: human, HepG2-A16-CD81EGFP cells; read-out: INHIBITION

Ask: Recall and state the measured cytotoxicity at 10 µM for COc1ccc(Oc2ccc(CNC(=O)C3CCS(=O)(=O)C3)cn2)cc1 (stereo not given) .
Result: -2.22%

Ask: For the compound CNc1nc(C(=O)NCC2CCOc3ccccc3C2)cs1 (stereo not given) , report cytotoxicity at 10 µM.
Result: 2.53%

Ask: Provide cytotoxicity at 10 µM value for the following compound: CCN(Cc1cnn(C)c1)C[C@H]1CC[C@@H](Cc2ccc(CO)cc2)O1
Result: 5.95%

Ask: Supply reported cytotoxicity at 10 µM belonging to this compound: O=C(Cc1ccccc1)NC[C@H]1Cn2ccnc2CO1
Result: 0.148%

Ask: Please report cytotoxicity at 10 µM for the following compound: CCC(C(=O)NCc1ccncc1)N(c1ccc(F)cc1)S(C)(=O)=O (stereo not given)
Result: -5.48%

----------
Test: Toxicity liver stage against HepG2, at 10uM
Type: cell-based
Parameters: test concentration 10 uM, cell line HepG2-A16-CD81EGFP
Conditions: human, HepG2-A16-CD81EGFP cells; read-out: INHIBITION
Let's look at some molecules and their measured cytotoxicity at 10 µM.
State just the number; it will be interpreted in %.

Cc1ccc(C(=O)Nc2c(C(=O)N(C)C)nn(C)c2C)cc1
5.59

Ask: Supply reported cytotoxicity at 10 µM belonging to this molecule: CN(Cc1nnc2n1CCC2)S(=O)(=O)c1ccc(Br)cc1Cl
Result: -6.08

Ask: Answer with the recorded cytotoxicity at 10 µM for the molecule listed here: CCOc1cc(/C=C/c2ncc(C(=O)O)s2)ccc1O
Result: 0.241

Ask: Answer with the recorded cytotoxicity at 10 µM of CCCc1cc(=O)[nH]c2nnc(SCC(C)=O)n12 only.
Result: 7.29

Ask: Name the recorded cytotoxicity at 10 µM of the item CC(C)[C@H](NC(=O)NC1CCS(=O)(=O)C1)C(=O)NCc1cccnc1 (stereo partly specified) in your answer.
Result: 5.47

Ask: Give the reported cytotoxicity at 10 µM for this molecule. O=C1CNc2ncnc(N3CCN(Cc4ccccc4)CC3)c2N1
Result: 9.76

Ask: Entry CSCC[C@@H](CO)Nc1ccc(-c2nc(-c3ccccc3F)no2)cn1 needs its cytotoxicity at 10 µM filled in; supply it.
Result: 9.74

Ask: Supply measured cytotoxicity at 10 µM of Cc1ccc(OCCN(C)Cc2cscn2)cc1 in your reply.
Result: 0.51

Ask: State its cytotoxicity at 10 µM: NCC1CCC(c2c(C(N)=O)sc3ccccc23)CC1 (stereo unspecified)
Result: 1.52

Ask: Give recorded cytotoxicity at 10 µM. Cc1cccc(CCNC(=O)CCS(=O)(=O)C2CCCC2)c1
Result: 9.27

Ask: Quickly give me recorded cytotoxicity at 10 µM for CN(C)C(=O)COC[C@]12COC[C@H]1CN(Cc1ccoc1)C2
Result: -1.56

Ask: Please supply the value of reported cytotoxicity at 10 µM for the item Cc1nc(C(C)C)cc(N2CCC3(CCC(=O)N(CC4CC4)C3)CC2)n1
Result: -2.99

Ask: Give the reported cytotoxicity at 10 µM for this molecule. CCc1noc(CN2CCN(C(=O)Cc3ccc(F)cc3)CC2)n1
Result: 10.4

----------
Test: Toxicity liver stage against HepG2, at 10uM
Format: cell-based
Parameters: test concentration 10 uM, cell line HepG2-A16-CD81EGFP
Conditions: human, HepG2-A16-CD81EGFP cells; read-out: INHIBITION
MEASUREMENT_NAME: cytotoxicity at 10 µM (%)
Answer with a number only, understood to be in %.

// known answers, use as guide
CC[C@@H]1N(Cc2ccccn2)CCC[C@]12CCC(=O)N2CCOC
8.01
Cc1nc(CC(=O)N2CCC3(CC2)CC(=O)N(CC2CCCO2)C3)cs1 (configuration not stated)
-7.85
COc1ccccc1CN(CC1CCCO1)C(=O)c1ccc(F)cn1 (configuration not stated)
-3.85
c1ccc(-c2nc(CN3CCCC3Cn3cncn3)no2)cc1 (configuration not stated)
-7.22
COc1ccc(NC(=O)NCc2ccnc(N(C)C)c2)cn1
-8.6

Ask: Specify reported cytotoxicity at 10 µM for the compound shown: O=C(CC1Cn2ncnc2NC1=O)Nc1cccc(C(F)(F)F)c1 (configuration not stated)
Result: 6.17

Ask: Please look at this compound and report its cytotoxicity at 10 µM: CC(C)c1noc(CNc2ccc(OC(F)F)cc2OC(F)F)n1
Result: 23.6

Ask: // fetch cytotoxicity at 10 µM given entry O=c1cc2c(nn1CN1CCN(c3ccccc3)CC1)CCC2
Result: 7.13

----------
Assay: Toxicity liver stage against HepG2, at 10uM
Assay type: cell-based
Parameters: test concentration 10 uM, cell line HepG2-A16-CD81EGFP
Settings: human, HepG2-A16-CD81EGFP cells; read-out: INHIBITION
Below, each of the compounds is paired with its reported cytotoxicity at 10 µM value.
Quick reminder: number only, in %, skip the unit.

CCOCC1CN(C(=O)c2cscn2)Cc2cn(C)nc21 (stereo not drawn)
-76.6
O[C@@]1(CNCCCOc2cccnc2)CCCN2CCCC[C@@H]21
3.42
Cc1ccc(CNC(C)c2nnc3n2CCCC3)o1 (stereo not drawn)
-7.17

Ask: Tell me its cytotoxicity at 10 µM given CCn1nc(C)cc1C(=O)N1CCC(Nc2ccc(C)nn2)CC1 as the entry.
Result: -4.32

Ask: Give the measured cytotoxicity at 10 µM for CCN(CC)C(=O)c1cc(C2CCCN2C)ccn1 (stereo not drawn)
Result: -3.24

Ask: Specify reported cytotoxicity at 10 µM for the compound shown: CCC(C)C(=O)NS(=O)(=O)c1ccc(C#N)cc1C(F)(F)F (stereo not drawn)
Result: -5.25

Ask: Please report cytotoxicity at 10 µM for the following compound: CC(=O)Nc1ccc(CCC2(NC(=O)C3CC3)CCCCC2)cn1
Result: 13.4

Ask: Write down cytotoxicity at 10 µM measured for item CC(C)(CNC(=O)Nc1nccs1)N1CCOCC1
Result: -9.47

Ask: Query cytotoxicity at 10 µM for CCN(CC)c1ccc(CNC(=O)N2CCC(C#N)CC2)cc1
Result: -11.4

Ask: Give cytotoxicity at 10 µM for the following compound: COCCN1CCN(Cc2c(C3CCNCC3)[nH]c3ncccc23)CC1
Result: -23.2

Ask: Give the reported cytotoxicity at 10 µM for this compound. CN1CCOC(CNCc2ccc(OCc3ccccn3)cc2)C1 (stereo not drawn)
Result: -13.4

Ask: Item Cc1cc(C)c2cc(CNCc3ccco3)c3nn(C)c(=O)n3c2c1 : provide cytotoxicity at 10 µM
Result: -13.6

Ask: Supply recorded cytotoxicity at 10 µM for c1ccc2ncc(CC3CCNCC3)cc2c1 here.
Result: 1.8

Ask: Return reported cytotoxicity at 10 µM. Input compound: CCN(c1ccc(C(=O)NCCCN2CCCC2)cc1)S(=O)(=O)CC
Result: -3.29

Ask: Hello, please tell me recorded cytotoxicity at 10 µM for this one: CC(=O)N1CCC2(CCCN(C(=O)CCN3CCCCC3)C2)C1 (stereo not drawn)
Result: 0.906
